Reference source for all entries: patent US20250127753A1

- Test system: B16-F10
- test_details: In vitro cell viability (CTG), B16-F10
- Assay type: cell-based, Mouse
- experimental_parameters: B16-F10 cells, 72 hours, CTG assay
measured_attribute: IC50 (µM)

> print(dat)
                                   molecule  target.desc  meas.value
1  N.N.[Cl][Pt][Cl] [Cisplatin, reference compound]      B16-F10        16.9

====

- System: 786-O
- test_details: In vitro cell viability (CTG), 786-O
- Format: cell-based, Human
- experimental_parameters: 786-O cells, 72 hours, CTG assay
measured_attribute: IC50 (µM)

> print(dat)
                                   molecule  measured.attribute  unit.info  meas.value
1  N.N.[Cl][Pt][Cl] [Cisplatin, reference compound]                IC50         µM        3.68

====

- Test system: LL/2(LLC1)
- test_details: In vitro cell viability (CTG), LL/2(LLC1)
- Format: cell-based, Mouse
- experimental_parameters: LL/2(LLC1) cells, 72 hours, CTG assay
measured_attribute: IC50 (µM)

> print(dat)
                                   compound  target.desc  meas.value
1  N.N.[Cl][Pt][Cl] [Cisplatin, reference compound]   LL/2(LLC1)        10.6
